Test system: SF-268 CNS
Assay remarks: NCI tumour cell line growth inhibition, 48 h
Parameter: GI50

Entry Cc1ccc(/C=C2/SC(Nc3nc(-c4csc(NC5=NC(=O)/C(=C\c6ccc(C)cc6)S5)n4)cs3)=NC2=O)cc1 , SF-268 CNS data, GI50 value: 8.98 µM

Entry C/C(=N/Nc1nc2ccccc2n1C)c1ccccn1 , SF-268 CNS data, GI50 value: 0.202 µM

Entry O=C(c1ccco1)c1nc2cc(Cl)ccc2[n+]([O-])c1C(F)(F)F , SF-268 CNS data, GI50 value: 71.1 µM

Entry Cc1ccccc1N=Nc1ccc(NC(=O)c2ccnn2C)c(C)c1 , SF-268 CNS data, GI50 value: 31.7 µM

Entry CCC(CO)Nc1nc(NCc2ccccc2O)c2ncn(C(C)C)c2n1 (stereo not drawn) , SF-268 CNS data, GI50 value: 2.55 µM

Entry C#CCC(Cc1cnc2nc(N)nc(N)c2n1)c1ccc(C(=O)N[C@@H](CCC(=O)O)C(=O)O)cc1 (stereo partly drawn) , SF-268 CNS data, GI50 value: < 0.01 µM

Entry CCOc1ccc(-c2nonc2NC(=O)c2cccc(C)c2)cc1OCC , SF-268 CNS data, GI50 value: 90.5 µM

Entry CC1(C)N=C(N)N=C(N)N1c1ccc(OCCCCOc2ccc(S(=O)(=O)F)cc2)c(Cl)c1 , SF-268 CNS data, GI50 value: 0.076 µM

* * *

Tested on: SW-620 colon
Assay remarks: NCI tumour cell line growth inhibition, 48 h
Please go through the items and note down their TGI.

Entry [O-][n+]1onc2c1CCC(=N\O)/C2=N/Nc1ccccc1 , SW-620 colon data, TGI value: > 100 µM

Entry c1ccc2[nH]c(-c3ccc(NN=Nc4ccncc4)cc3)nc2c1 , SW-620 colon data, TGI value: > 100 µM

Entry CC(=O)OCC1OC(n2c(-c3ccccc3)c(C(C)=O)c(-c3ccc(Cl)cc3)c(C#N)c2=S)C(OC(C)=O)C(OC(C)=O)C1OC(C)=O (centres undefined) , SW-620 colon data, TGI value: > 100 µM

Entry O=C(CC(C(=O)c1ccco1)c1ccsc1)c1ccco1 (centres undefined) , SW-620 colon data, TGI value: > 100 µM

Entry O=c1ccn(C2OC(CO/N=C/c3ccc(O)c(O)c3O)C(O)C2O)c(=O)[nH]1 (centres undefined) , SW-620 colon data, TGI value: 35.9 µM

Entry Cc1cc2nc3c4cc(N)ccc4n(CCN(C)C)c3nc2cc1C , SW-620 colon data, TGI value: 10.9 µM

Entry CC(C)[C@H](CO)Nc1nc(Nc2ccc(C(=O)NCCNS(=O)(=O)c3cccc4c(N(C)C)cccc34)c(Cl)c2)c2ncn(C(C)C)c2n1 , SW-620 colon data, TGI value: > 100 µM

Entry Oc1ccccc1/C=N/Nc1nc(N/N=C/c2ccccc2O)nc(N/N=C/c2ccccc2O)n1 , SW-620 colon data, TGI value: > 100 µM

Entry C=CC[N+]12CN3CN(CN(C3)C1)C2 , SW-620 colon data, TGI value: > 100 µM

* * *

Please go through the items and note down their GI50.
Test system: LOX IMVI melanoma
Assay remarks: NCI tumour cell line growth inhibition, 48 h

Recorded result, C/C(=N/Nc1nc2ccccc2n1C)c1ccccn1 , GI50: 0.0514 µM

Recorded result, O=C(Nc1cccc(Cl)c1)c1ccc(NC2=C(Cl)C(=O)N(Cc3ccccc3)C2=O)cc1 , GI50: 4.24 µM

Recorded result, COc1cc2cc(Oc3ccc(NC(=O)Nc4cccc(C(F)(F)F)c4)cc3)c(C)nc2cc1OC , GI50: 1.84 µM

Recorded result, COc1ccc(/C=C\c2cc(OC)c(OC)c(OC)c2)cc1OC(=O)c1cccc(Cn2cc(CCOC(=O)[C@H](N)Cc3cn(C)c4ccccc34)nn2)c1 , GI50: < 0.01 µM

Recorded result, Cc1ccccc1N=Nc1ccc(NC(=O)c2ccnn2C)c(C)c1 , GI50: 72.2 µM

Recorded result, O=C(CNc1ccc2c(c1)C(=O)c1ccccc1C2=O)Nc1ccc2c(c1)C(=O)c1ccccc1C2=O , GI50: 0.142 µM

Recorded result, Cc1ccc(-n2c3c(c4c(CN(C)C)c(O)ccc42)CCc2ccccc2C3=O)cc1 , GI50: 15.8 µM

Recorded result, C=C(CN1C(=O)[C@H]2CCCN2C(=O)c2ccccc21)c1ccc(C(=O)O)cc1 , GI50: > 100 µM

* * *

System: HCT-15 colon
Assay remarks: NCI tumour cell line growth inhibition, 48 h; in the data active = GI50 below about 0.43 µM; inactive = the rest
Choose one outcome from this list and give only that: yes (active), no (inactive)

stdin: Hi team, can someone confirm the assay call for Cn1c(/C=C(\C#N)c2ccccc2)nc2c(N3CCOCC3)nc(Cl)nc21 ?
stdout: yes

stdin: Hi team, can someone confirm the assay call for O=c1ccn(C2OC(CO/N=C/c3ccc(O)c(O)c3O)C(O)C2O)c(=O)[nH]1 (configuration not stated) ?
stdout: no

stdin: Hi team, can someone confirm the assay call for O=C1CCCCCCCC/C=C\CC(c2ccco2)O1 (configuration not stated) ?
stdout: no

stdin: Hi team, can someone confirm the assay call for CCOc1ccc(-c2nonc2NC(=O)c2cccc(C)c2)cc1OCC ?
stdout: no

stdin: Hi team, can someone confirm the assay call for NC(N)=N/N=C\c1cccc(OCc2ccccc2)c1 ?
stdout: no

stdin: Hi team, can someone confirm the assay call for O=C(c1ccco1)c1nc2cc(Cl)ccc2[n+]([O-])c1C(F)(F)F ?
stdout: no

stdin: Hi team, can someone confirm the assay call for CC(C)[C@H](CO)Nc1nc(Nc2ccc(C(=O)NCCNS(=O)(=O)c3cccc4c(N(C)C)cccc34)c(Cl)c2)c2ncn(C(C)C)c2n1 ?
stdout: no

stdin: Hi team, can someone confirm the assay call for COc1cc(C)c(Cl)cc1C1=NN(c2ccc(S(N)(=O)=O)cc2)C(/C=C/c2ccccc2)C1 (configuration not stated) ?
stdout: no

stdin: Hi team, can someone confirm the assay call for O=C1C(=O)c2ccccc2C(O)=C1CC=C(Br)Br ?
stdout: yes

stdin: Hi team, can someone confirm the assay call for CC[C@H](Nc1nc(NCc2cnc(C)cc2C)c2ncn(C(C)C)c2n1)[C@@H](C)O ?
stdout: yes

stdin: Hi team, can someone confirm the assay call for CCC(CO)Nc1nc(NCc2ccccc2O)c2ncn(C(C)C)c2n1 (configuration not stated) ?
stdout: no

stdin: Hi team, can someone confirm the assay call for Ic1ccccc1-c1ccccc1 ?
stdout: no

stdin: Hi team, can someone confirm the assay call for COc1ccc(/C=C/C(=O)c2ccc(SC)cc2)cc1OC ?
stdout: no

stdin: Hi team, can someone confirm the assay call for Cc1ccccc1N=Nc1ccc(NC(=O)c2ccnn2C)c(C)c1 ?
stdout: no

stdin: Hi team, can someone confirm the assay call for O=c1nc2n(-c3ccc(Cl)cc3)c3ccc([N+](=O)[O-])cc3cc-2c(=O)[nH]1 ?
stdout: no

stdin: Hi team, can someone confirm the assay call for C#CCC(Cc1cnc2nc(N)nc(N)c2n1)c1ccc(C(=O)N[C@@H](CCC(=O)O)C(=O)O)cc1 (some centres not stated) ?
stdout: yes

stdin: Hi team, can someone confirm the assay call for COC(=O)c1c2c(c(C)[n+]([O-])c1C)C(=O)C=C(NCc1ccc(F)c(Cl)c1)C2=O ?
stdout: yes

* * *

Test system: SK-OV-3 ovarian
Assay remarks: NCI tumour cell line growth inhibition, 48 h
Parameter: TGI

Recorded result, COc1cc(-c2nn(-c3cccc(NC(=O)Nc4cc(C(F)(F)F)cc(C(F)(F)F)c4)c3)cc2-c2ccncc2)ccc1Cl , TGI: 2.87 µM

Recorded result, Cc1nc2ccc(S(=O)(=O)Nc3ccccc3)cc2c(=O)n1NC(=O)CNc1ccccc1 , TGI: > 100 µM

Recorded result, COc1cccc(NC(=O)/C(CC(=O)CC(c2ccccc2)c2c(O)c3ccccc3oc2=O)=N\NC(C)(C)C)c1OC (stereo not drawn) , TGI: > 100 µM

Recorded result, CCC/C(=N/N=C(N)N)c1ccc(NC(=O)c2cc3cc(OC)ccc3[nH]2)cc1 , TGI: 29.6 µM

Recorded result, CC(C)(C)C(=O)C(C(=O)C(C)(C)C)C(=O)C(C)(C)C , TGI: > 100 µM

Recorded result, Oc1cc(O)c2c(-c3c(O)c(-c4ccc(O)c(O)c4)[o+]c4cc(O)cc(O)c34)c(O)c(-c3ccc(O)c(O)c3)[o+]c2c1 , TGI: > 100 µM

Recorded result, CC(=O)O[C@H]1C(=O)[C@@]2(C)[C@H]([C@H](OC(=O)c3cccc(C(F)(F)F)c3)[C@]3(O)C[C@H](OC(=O)[C@H](O)[C@@H](NC(=O)c4ccccc4)c4ccccc4)C(C)=C1C3(C)C)[C@]1(OC(C)=O)CO[C@@H]1C[C@@H]2O , TGI: > 25 µM

Recorded result, CC(C)(C)N1C(C(=O)c2ccccc2)C1c1ccccc1 (stereo not drawn) , TGI: > 100 µM

* * *

System: SW-620 colon
Assay remarks: NCI tumour cell line growth inhibition, 48 h
Parameter: TGI (µM)
# value in µM; strip the unit string

Recorded result, COc1cc(-c2nn(-c3cccc(NC(=O)Nc4cc(C(F)(F)F)cc(C(F)(F)F)c4)c3)cc2-c2ccncc2)ccc1Cl , TGI: 2.94

Recorded result, COc1ccc(-c2c(=O)[nH]n3c(=S)nc(-c4ccccc4)[nH]c23)cc1OC , TGI: 83.8

Recorded result, CCC/C(=N/N=C(N)N)c1ccc(NC(=O)c2cc3cc(OC)ccc3[nH]2)cc1 , TGI: 20.1

Recorded result, Cn1c(/C=C(\C#N)c2ccccc2)nc2c(N3CCOCC3)nc(Cl)nc21 , TGI: 1.51
